Where these numbers come from: paper PMC9917184

systemUnderTest: membrane PD-L1 (Homo sapiens, UniProt Q9NZQ7)
Construct: Alexa Fluor® 647 Rabbit monoclonal Anti-PD-L1 (ab215251); endogenous in cells; host or cells: HT-29, MCF-7, A-549 (A17: MCF-7 only; A14: IFN-gamma-stimulated cancer cells co-cultured with Jurkat T cells)
Sequence (Q9NZQ7 19-290): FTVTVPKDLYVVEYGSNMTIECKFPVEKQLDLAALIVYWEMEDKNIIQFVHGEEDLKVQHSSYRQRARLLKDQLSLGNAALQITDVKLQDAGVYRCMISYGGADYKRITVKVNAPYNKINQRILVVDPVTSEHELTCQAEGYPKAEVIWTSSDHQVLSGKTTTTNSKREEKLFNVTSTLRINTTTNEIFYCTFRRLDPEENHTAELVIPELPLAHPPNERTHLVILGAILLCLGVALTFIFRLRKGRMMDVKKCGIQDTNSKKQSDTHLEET
assayOverview: Membrane PD-L1 relative quantification by flow cytometry in cancer cells co-cultured with Jurkat T cells
Type: cell-based
conditionContext: Jurkat, 24 h, A549 co-cultured with Jurkat T cells, relative to non-treated co-cultures, read-out: % PDL1 (membrane)
valueType: remaining activity at 100 µM (%)

>  <structureSmilesString>
COc1ccc(C(OCCc2ccc(CCn3cc(-c4ccccc4)nn3)cc2)(c2ccccc2)c2ccc(OC)cc2)cc1

>  <remaining activity at 100 µM [%]>
96

$$$$
>  <structureSmilesString>
OCCc1ccc(CCn2cc(-c3ccccc3Br)nn2)cc1

>  <remaining activity at 100 µM [%]>
84

$$$$
>  <structureSmilesString>
OCCc1ccc(CCn2cc(-c3ccccc3)nn2)cc1

>  <remaining activity at 100 µM [%]>
60

$$$$
>  <structureSmilesString>
OCCc1ccc(CCn2cc(-c3ccc(Br)cc3)nn2)cc1

>  <remaining activity at 100 µM [%]>
80

$$$$
>  <structureSmilesString>
COc1ccc(-c2cn(CCc3ccc(CCO)cc3)nn2)cc1

>  <remaining activity at 100 µM [%]>
84

$$$$

* * *

Entries and their measured viability at 100 µM follow.
System: MCF-7
assayOverview: MCF-7 cell viability in co-culture with Jurkat T cells (flow cytometry count)
Format: cell-based, human
conditionContext: Homo sapiens, MCF7, MCF-7/Jurkat T co-culture, IFN-γ stimulated, 24 h, read-out: percentage of living MCF-7 cells relative to non-treated co-cultures
Answer with a number only, understood to be in %.

Look over these answered cases.
>  <molecule>
COc1ccc(C(OCCc2ccc(CCn3cc(-c4ccc(Br)cc4)nn3)cc2)(c2ccccc2)c2ccc(OC)cc2)cc1 [Compound 3]

>  <viability at 100 µM, %>
45

$$$$
>  <molecule>
COc1ccc(-c2cn(CCc3ccc(CCO)cc3)nn2)cc1 [Compound 10]

>  <viability at 100 µM, %>
94

$$$$

Q: Hi! What's the reported viability at 100 µM for COc1ccc(C(OCCc2ccc(CCn3cc(-c4ccccc4)nn3)cc2)(c2ccccc2)c2ccc(OC)cc2)cc1 [Compound 1] on MCF-7?
A: 56

Q: Please tell me: viability at 100 µM of COc1ccc(C(OCCc2ccc(CCn3cc(-c4cccc(OC)c4)nn3)cc2)(c2ccccc2)c2ccc(OC)cc2)cc1 [Compound 11] , system MCF-7?
A: 50

* * *

Tested on: Jurkat T cells
assayOverview: Jurkat T cell viability in co-culture with cancer cells (flow cytometry count)
Type: cell-based
conditionContext: Homo sapiens, 24 h, MCF-7/Jurkat T co-culture, read-out: percentage of living Jurkat cells relative to non-treated co-cultures
viability at 100 µM for assorted compounds
Numbers only; they are read as %.

Before answering, review these 6 worked examples.
>  <compound>
COc1cccc(-c2cn(CCc3ccc(CCO)cc3)nn2)c1

>  <unitText>
%

>  <viability at 100 µM>
123

$$$$
>  <compound>
COc1ccc(C(OCCc2ccc(CCn3cc(-c4ccccc4)nn3)cc2)(c2ccccc2)c2ccc(OC)cc2)cc1

>  <unitText>
%

>  <viability at 100 µM>
86

$$$$
>  <compound>
Cc1c(COc2ccc(CN3CCCCC3C(=O)O)cc2Br)cccc1-c1ccccc1 (centres unmarked) [BMS-8, reference compound]

>  <unitText>
%

>  <viability at 100 µM>
53

$$$$
>  <compound>
COc1ccc(C(OCCc2ccc(CCn3cc(-c4ccc(Br)cc4)nn3)cc2)(c2ccccc2)c2ccc(OC)cc2)cc1

>  <unitText>
%

>  <viability at 100 µM>
75

$$$$
>  <compound>
OCCc1ccc(CCn2cc(-c3ccccc3Br)nn2)cc1

>  <unitText>
%

>  <viability at 100 µM>
164

$$$$
>  <compound>
COc1ccc(C(OCCc2ccc(CCn3cc(-c4cccc(Br)c4)nn3)cc2)(c2ccccc2)c2ccc(OC)cc2)cc1

>  <unitText>
%

>  <viability at 100 µM>
96

$$$$

Q: Please give the measured viability at 100 µM for this compound: "COc1ccc(C(OCCc2ccc(CCn3cc(-c4cccc(OC)c4)nn3)cc2)(c2ccccc2)c2ccc(OC)cc2)cc1"
A: 79

Q: Can you look up the measured viability at 100 µM of "OCCc1ccc(CCn2cc(-c3ccc(Br)cc3)nn2)cc1" for me?
A: 218
